Tested on: HL-60(TB) leukemia
test.protocol: NCI tumour cell line growth inhibition, 48 h
measurement.name: TGI (µM)

CCNc1nc(O)c(/C=C2\C=Nc3ncccc32)s1 ... 10.2
O=C(NC12CC3CCC1CC(C3)C2)[C@@H]1CCCN1C(=O)OCc1ccccc1 (stereo not given in full) ... 73.3

---

System: SK-OV-3 ovarian
test.protocol: NCI tumour cell line growth inhibition, 48 h
measurement.name: TGI

c1ccc(-c2[nH]ncc2-c2ccnc(-c3ccc(OCCn4ccnc4)cc3)c2)nc1 ... > 25 µM
CC(Br)C(=O)NC(CO)C(=O)O (centres undefined) ... > 100 µM
CN(C)CCN(c1ccccn1)c1ccccn1 ... > 100 µM
Cc1nc2ccccc2nc1CC(=O)C(=O)Nc1ccc(Cl)cc1Cl ... > 100 µM
O=C(ON=C1c2ccccc2C(Br)C(Br)c2ccccc21)c1ccccc1 (centres undefined) ... 38.9 µM
CC1=CC2C3(C)C(C)(C(C)=CP3(=O)c3c(C(C)C)cc(C(C)C)cc3C(C)C)C1P2(=O)c1c(C(C)C)cc(C(C)C)cc1C(C)C (centres undefined) ... 10.9 µM
O=C1C=CC2(O[C@H](c3ccccc3)[C@@H](c3ccccc3)O2)[C@H](Sc2ccccc2O)C1 ... 11.8 µM
Cc1nnc2n(c1=O)CCCN2C ... > 100 µM
CCOC(=O)/C=C/c1nc(C#N)c(N)o1 ... > 100 µM

---

System: 786-0 renal
test.protocol: NCI tumour cell line growth inhibition, 48 h
The following compounds are shown together with reported TGI values.
measurement.name: TGI

Cn1c2ccccc2c2ccc3c(c21)C(=O)c1ccc2c4ccccc4n(C)c2c1C3=O ... > 100 µM
CCOC(=O)c1nc(C)oc1C(F)(F)F ... > 100 µM
C[C@]12CCC3[C@@H](CCC45OC4C(=O)CC[C@]35C)C1Cc1cnn(-c3ccc(F)cc3)c1N2 (stereo not given in full) ... 35.2 µM
O=C1NC(=O)c2c1n(Cc1ccccc1)c(=O)n2Cc1ccccc1 ... > 100 µM
CN(C)c1ccc(/C=C(\NC(=O)c2ccccc2)C(=O)NC(CC(=O)O)C(=O)O)cc1 (stereo not given) ... > 100 µM
NNC(=O)C(=O)N/N=C1/CCCC1C(=O)CCC(=O)Nc1ccc(Cl)cc1 (stereo not given) ... > 100 µM
CC1(C)N=C(N)N=C(N)N1c1ccc(CCC(=O)Nc2ccc(S(=O)(=O)F)cc2)cc1 ... > 100 µM
CCN(CC)Cc1cc(Nc2nc(NC3CCC(N(C)C)CC3)c3ccccc3n2)ccc1OC (stereo not given) ... 19.3 µM
COc1ccc(C(=O)c2cc(OC)c(OC)c(OC)c2OC)cc1O ... > 100 µM
CC1CC(N2CCOCC2)=Nc2ccccc2N1C (stereo not given) ... > 100 µM
Cc1ccc(S(=O)(=O)OCC/C(=C\[Si](C)(C)C)c2ccccc2)cc1 ... > 100 µM
CN(C)c1nc(Oc2nc(N(C)C)nc(N(C)C)n2)nc(N(C)C)n1 ... > 100 µM
CC(C)Oc1cccc(N2C(n3ccnc3)=Nc3ccncc3S2(=O)=O)c1 ... 22.1 µM
Cc1ccc2c(-c3ccnc(Nc4ccc5c(c4)OCCO5)n3)c(-c3ccc(C(F)(F)F)cc3)nn2n1 ... > 25 µM
O=c1[nH]c(NCc2ccncc2)nc2nc[nH]c12 ... > 100 µM
CCOC(=O)CSc1nc(N)c2c(-c3ccccc3)c3c(nc2n1)CCCC3 ... > 100 µM
COc1cc([C@@H]2c3cc4c(cc3[C@@H](NC(=O)c3ccc(C#N)cc3)C3COC(=O)[C@@H]32)OCO4)cc(OC)c1O (stereo not given in full) ... 16 µM
COc1nc2c(c(O)c(C)c(=O)n2OC2OCC(OC(C)=O)C(OC(C)=O)C2OC(C)=O)c(=O)n1C (stereo not given) ... > 100 µM
CN(O)C(=O)/C=C/c1ccc(OCc2cccc(Cl)c2)cc1 ... 47.2 µM
Cc1c(N2CCOCC2)nc2ccc(Cl)cc2c1-c1ccccc1 ... > 100 µM
CC(=O)Nc1nc(Cl)cc(NCC2(CO)CCC2)n1 ... > 100 µM
COc1cc2ccc3c4cc(OC)c(OC)cc4c[n+](C)c3c2cc1O ... > 100 µM
N#CC1(c2ccc(NC(=O)c3cccnc3NCc3ccncc3)cc2)CCCC1 ... 49.6 µM
Cc1ccc2c(c1)CN1c3ccc(C)cc3CN2C1c1ccccc1O ... > 100 µM
O=C1c2cccc(Oc3ccccc3)c2C(=O)c2cccc(Oc3ccccc3)c21 ... > 100 µM
OCc1cn(Cc2ccccc2)c2ccccc12 ... > 53 µM
COc1ccc(C2Oc3ccc(Cl)cc3C=C2[N+](=O)[O-])cc1 (stereo not given) ... > 100 µM
Cn1c([N+](=O)[O-])cnc1C=C1C(=O)c2ccccc2C1=O ... 28.3 µM
CCN=c1sc2c(n1NC(=O)c1cc3ccc1CCc1ccc(cc1)CC3)C(=O)c1ccccc1C2=O ... 1.62 µM
CN[C@@H](C)C(=O)N[C@H]1CN(S(=O)(=O)c2cccc(S(=O)(=O)N3CC[C@H]4CC[C@@H](C(=O)NC(c5ccccc5)c5ccccc5)N4C(=O)[C@@H](NC(=O)[C@H](C)NC)C3)c2)CC[C@H]2CC[C@@H](C(=O)NC(c3ccccc3)c3ccccc3)N2C1=O ... 43.8 µM
N#Cc1c(-c2ccc([N+](=O)[O-])cc2)cc(-c2ccc(Nc3ccnc4cc(Cl)ccc34)cc2)[nH]c1=O ... > 100 µM
COc1ccc(N=Nc2c(-c3c(OC)cc4occc4c3OC)[nH]c(=O)c(C#N)c2C)cc1 ... > 100 µM
CC(=O)ON1CCCC(P(=O)(OCOC(=O)C(C)(C)C)OCOC(=O)C(C)(C)C)C1=O (stereo not given) ... > 23.4 µM
O=C(COc1ccc(OCC(=O)N/N=C/c2ccc(-c3ccc(Cl)cc3Cl)o2)c(Cl)c1)N/N=C/c1ccc(-c2ccc(Cl)cc2Cl)o1 ... > 100 µM
CCc1c(O)cc(=O)oc1-c1ccc(OC)c(OC)c1 ... > 100 µM
Cc1ccc(-c2cc(-c3ccco3)c(C#N)c(=S)[nH]2)cc1 ... > 100 µM
Cc1c2cccc-2c2cc(O)c3ccccc3c2n1-c1ccc(N(C)C)cc1 ... 33.1 µM
N#CC(C(=O)C(=O)Nc1c(Cl)cccc1Cl)c1ccccc1 (stereo not given) ... > 100 µM
O=c1cc(O)cc2n1CCC2 ... > 100 µM
O=[N+]([O-])c1ccc(C[P+]2(c3ccccc3)CCCCC2)cc1 ... > 100 µM
